Documented PBM E-score across a set of sequences
# Experimental system: Zap1 (UniProt P47043)
# Sequence: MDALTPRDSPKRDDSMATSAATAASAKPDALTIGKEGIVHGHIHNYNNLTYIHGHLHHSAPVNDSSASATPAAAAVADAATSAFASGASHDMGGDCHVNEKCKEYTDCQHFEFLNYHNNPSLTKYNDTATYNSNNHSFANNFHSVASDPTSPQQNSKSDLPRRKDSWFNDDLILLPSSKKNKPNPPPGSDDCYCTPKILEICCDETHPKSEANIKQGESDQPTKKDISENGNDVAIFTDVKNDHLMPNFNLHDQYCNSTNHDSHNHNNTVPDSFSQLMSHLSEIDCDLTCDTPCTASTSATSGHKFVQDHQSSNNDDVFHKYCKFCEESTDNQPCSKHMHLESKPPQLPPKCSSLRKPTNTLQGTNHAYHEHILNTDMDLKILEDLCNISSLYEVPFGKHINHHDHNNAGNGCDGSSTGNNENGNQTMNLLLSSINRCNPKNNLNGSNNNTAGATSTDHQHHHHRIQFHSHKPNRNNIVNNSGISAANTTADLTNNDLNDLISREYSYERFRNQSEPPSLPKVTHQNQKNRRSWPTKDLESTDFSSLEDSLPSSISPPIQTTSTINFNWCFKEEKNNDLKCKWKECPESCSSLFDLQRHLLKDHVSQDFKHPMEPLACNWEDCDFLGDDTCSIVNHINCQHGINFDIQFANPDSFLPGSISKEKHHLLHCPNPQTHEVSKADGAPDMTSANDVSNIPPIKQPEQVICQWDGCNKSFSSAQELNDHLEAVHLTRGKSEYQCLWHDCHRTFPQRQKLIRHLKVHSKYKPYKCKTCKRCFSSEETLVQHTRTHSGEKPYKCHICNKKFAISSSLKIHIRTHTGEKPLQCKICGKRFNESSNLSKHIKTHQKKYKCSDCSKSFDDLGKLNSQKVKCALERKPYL
# Protocol description: PBM E-score (8-mer binding enrichment) (E-score (-0.5 to 0.5)); higher = stronger / more preferred TF binding
# Cond: protein concentration: 200 nM; construct: GST-full length
Over roughly 33,000 sequences, “E-score (-0.5 to 0.5)” has its median near -0.021; the highest 2% begin near 0.32. The sample as a whole holds a higher share of the highest values than the screen did.
I only need the number, thanks.

AGTTACCA	0.263

Quick note, PBM E-score for AAACCCTC landed at 0.175

Quick note, PBM E-score for CACCCCTC landed at 0.239

Quick note, PBM E-score for GAACAAGC landed at -0.175

Quick note, PBM E-score for CTGATAAA landed at 0.121

Quick note, PBM E-score for CCCCCATA landed at -0.0168

Quick note, PBM E-score for GAGATCCA landed at -0.0613

Quick note, PBM E-score for TAGGGTAA landed at 0.396

Quick note, PBM E-score for CGTTAACA landed at 0.00812

Quick note, PBM E-score for CGACGAAC landed at -0.0937

Quick note, PBM E-score for AGACCCTG landed at 0.253

Quick note, PBM E-score for GGTTAACA landed at 0.32

Quick note, PBM E-score for GCGCTATA landed at -0.105

Quick note, PBM E-score for ACGTCGCA landed at -0.0322

Quick note, PBM E-score for AAACCTAA landed at 0.159

Quick note, PBM E-score for CATCAAGG landed at 0.0235

Quick note, PBM E-score for CGTTAACC landed at 0.294

Quick note, PBM E-score for CTGGGTAC landed at 0.305

Quick note, PBM E-score for TAACCGTA landed at 0.31

Quick note, PBM E-score for CAGGGTAG landed at 0.306

---

# Experimental system: Zap1 (UniProt P47043)
# Sequence: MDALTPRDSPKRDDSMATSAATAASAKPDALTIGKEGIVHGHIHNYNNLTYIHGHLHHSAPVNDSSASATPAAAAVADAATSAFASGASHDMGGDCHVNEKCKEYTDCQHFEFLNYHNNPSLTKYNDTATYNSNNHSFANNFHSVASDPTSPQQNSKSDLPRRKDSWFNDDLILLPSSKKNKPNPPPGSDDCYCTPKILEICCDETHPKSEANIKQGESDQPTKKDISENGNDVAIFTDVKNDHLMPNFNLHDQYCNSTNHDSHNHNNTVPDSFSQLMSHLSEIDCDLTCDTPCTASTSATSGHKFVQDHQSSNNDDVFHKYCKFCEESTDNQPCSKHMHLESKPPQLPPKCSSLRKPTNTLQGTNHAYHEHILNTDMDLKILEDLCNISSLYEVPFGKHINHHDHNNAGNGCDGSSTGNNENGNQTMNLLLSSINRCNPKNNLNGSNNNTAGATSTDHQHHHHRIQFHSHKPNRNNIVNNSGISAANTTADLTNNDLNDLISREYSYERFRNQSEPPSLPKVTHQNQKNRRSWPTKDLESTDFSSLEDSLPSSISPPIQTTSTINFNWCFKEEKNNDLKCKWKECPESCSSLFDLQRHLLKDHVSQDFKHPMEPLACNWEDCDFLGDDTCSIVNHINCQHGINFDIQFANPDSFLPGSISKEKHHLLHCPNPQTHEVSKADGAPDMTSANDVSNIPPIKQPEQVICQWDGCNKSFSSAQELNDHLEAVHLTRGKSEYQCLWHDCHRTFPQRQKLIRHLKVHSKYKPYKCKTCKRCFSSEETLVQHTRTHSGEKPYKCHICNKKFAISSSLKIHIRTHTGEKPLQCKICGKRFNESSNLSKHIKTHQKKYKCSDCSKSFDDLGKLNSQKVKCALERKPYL
# Protocol description: PBM E-score (8-mer binding enrichment) (E-score (-0.5 to 0.5)); higher = stronger / more preferred TF binding
# Cond: protein concentration: 200 nM; construct: GST-full length
In all, about 33,000 sequences were measured (“E-score (-0.5 to 0.5)”: median about -0.021, highest 2% from about 0.32 on). The list comes from a sample in which the highest values are over-represented; it also holds close analogues and randomly drawn sequences.
Metric name: PBM E-score
I only need the number, thanks.

Below, 5 sequences whose answers are already recorded.
ACCCTACG	0.361
TCCCTACA	-0.0805
AGGTAGTG	0.268
GCCCTACC	0.0168
ACCCTACC	0.364

Quick note, PBM E-score for CCTGGCCC landed at -0.0746

Quick note, PBM E-score for CCTCAATA landed at 0.0804

Quick note, PBM E-score for ACCCTACA landed at 0.419

Quick note, PBM E-score for AGCAATGC landed at -0.0926

Quick note, PBM E-score for ATCCCTAC landed at -0.023

Quick note, PBM E-score for AGTGTGAA landed at -0.13

Quick note, PBM E-score for CGACGCTC landed at 0.0879

Quick note, PBM E-score for GTGAATTA landed at 0.206

Quick note, PBM E-score for CCATAAAC landed at 0.0419

Quick note, PBM E-score for GAGCTAGC landed at -0.179

Quick note, PBM E-score for TAGAGTCA landed at -0.166

Quick note, PBM E-score for CTTGCTAC landed at 0.0655

Quick note, PBM E-score for AGGATCTG landed at -0.242

Quick note, PBM E-score for CCGGTTTC landed at 0.0368

Quick note, PBM E-score for GCGGTTAC landed at 0.452

Quick note, PBM E-score for GAGAGCTA landed at -0.305

Quick note, PBM E-score for CGGGTAAA landed at 0.144

Quick note, PBM E-score for CCCCTACG landed at -0.117

---

# Experimental system: Zap1 (UniProt P47043)
# Sequence: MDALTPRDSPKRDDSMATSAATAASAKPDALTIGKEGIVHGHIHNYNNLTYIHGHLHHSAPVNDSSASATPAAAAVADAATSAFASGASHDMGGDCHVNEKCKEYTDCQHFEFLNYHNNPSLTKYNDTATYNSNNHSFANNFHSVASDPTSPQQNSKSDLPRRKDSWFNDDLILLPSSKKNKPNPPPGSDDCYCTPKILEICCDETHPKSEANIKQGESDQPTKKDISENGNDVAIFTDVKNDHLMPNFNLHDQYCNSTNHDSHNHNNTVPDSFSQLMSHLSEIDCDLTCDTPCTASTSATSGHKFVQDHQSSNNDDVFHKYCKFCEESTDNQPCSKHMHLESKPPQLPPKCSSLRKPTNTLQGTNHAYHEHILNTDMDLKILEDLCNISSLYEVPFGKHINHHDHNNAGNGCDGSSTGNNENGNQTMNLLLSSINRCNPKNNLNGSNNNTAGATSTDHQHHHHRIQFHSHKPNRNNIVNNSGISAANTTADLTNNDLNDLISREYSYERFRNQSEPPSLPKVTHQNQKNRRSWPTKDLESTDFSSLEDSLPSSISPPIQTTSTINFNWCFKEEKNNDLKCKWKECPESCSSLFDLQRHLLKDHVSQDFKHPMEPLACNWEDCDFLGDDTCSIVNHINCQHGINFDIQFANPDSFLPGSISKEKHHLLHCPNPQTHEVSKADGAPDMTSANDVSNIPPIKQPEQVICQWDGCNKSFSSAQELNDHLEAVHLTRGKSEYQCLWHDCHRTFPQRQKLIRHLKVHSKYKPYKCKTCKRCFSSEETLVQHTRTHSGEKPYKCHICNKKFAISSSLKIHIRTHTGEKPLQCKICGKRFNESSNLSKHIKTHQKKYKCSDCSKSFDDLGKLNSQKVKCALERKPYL
# Protocol description: PBM E-score (8-mer binding enrichment) (E-score (-0.5 to 0.5)); higher = stronger / more preferred TF binding
# Cond: protein concentration: 200 nM; construct: GST-full length
Over roughly 33,000 sequences, “E-score (-0.5 to 0.5)” has its median near -0.021; the highest 2% begin near 0.32. What follows is part of a selection rich in the highest values, with near analogues and random picks from the rest.
Entries get a class label from measured PBM E-score. See ranges: bin 0 = under -0.06, bin 1 = from -0.06 up to 0.03, bin 2 = 0.03 and over

CTACTGTA	bin 1

Challenge: GET /class?item= TGTTACAA
Response given: bin 2

Challenge: GET /class?item= ACGACCCG
Response given: bin 1

Challenge: GET /class?item= AGAAACTA
Response given: bin 1
